Recorded GI50 values for a group of compounds are listed next.
Tested on: EKVX
methodDescription: NCI tumour cell line growth inhibition, 48 h
Active and inactive are the calls of the source. Cut-off read from the data, not from the text of the source: active = GI50 up to about 1.1 µM and inactive = higher.

{"columns": ["compound", "GI50"],
 "data": [
  ["CCOC(=O)C(=O)N1C(C)=C(C(=O)OCC)CC(C(=O)OCC)=C1C", "> 100 µM (inactive)"],
  ["CC/C(CC(=O)CCC(=O)Nc1c(C)cccc1C)=N\\NC(=O)NN", "> 100 µM (inactive)"],
  ["Clc1ccc2c(c1)[nH]c1c2nc2sccn21", "> 100 µM (inactive)"],
  ["Cc1ccc(C2(c3ccc(C)cc3)SC(=C(C#N)C#N)c3ccccc32)cc1", "> 100 µM (inactive)"],
  ["CC(C)C(NCc1c2ccccc2[n+](C)c2ccccc12)C(=O)O (stereo not given)", "10.6 µM (inactive)"],
  ["Cc1c(C)c(C)c(Cn2[nH]c(=O)n(C)c2=O)c(C)c1C", "> 100 µM (inactive)"],
  ["COc1cc([C@@H]2c3cc4c(c(O[C@@H]5O[C@H]6CO[C@@H](C)O[C@H]6[C@H](O)[C@@H]5O)c3C[C@H]3COC(=O)[C@@H]32)OCO4)cc(OC)c1O", "5.55 µM (inactive)"],
  ["Cc1cccc(C2SCc3nc4ccccc4n32)c1 (stereo not given)", "18.9 µM (inactive)"],
  ["O=c1[nH]nc(-c2ccccc2)n1/N=C/c1cccc([N+](=O)[O-])c1", "> 100 µM (inactive)"],
  ["OCCN(C1=NCCN1)/[N+](=C\\c1ccccn1)[CH-]c1ccccn1", "> 100 µM (inactive)"]
]}

----------
Tested on: MOLT-4
methodDescription: NCI tumour cell line growth inhibition, 48 h
The source made the active and inactive calls. No stated cut-off is given here; in the data, active = GI50 up to about 1.1 µM and inactive = higher.
Recorded GI50 values for a group of compounds are listed next.
readoutLabel: GI50

{"columns": ["compound", "result"],
 "data": [
  ["COC(=N)CCCl", "> 100 µM (inactive)"],
  ["Cc1cn(C2CC3C(COCN3O)O2)c(=O)[nH]c1=O (centres undefined)", "> 100 µM (inactive)"],
  ["OC(c1cc(-c2ccccc2)nc2c1ccc1ccccc12)C1CCCCN1 (centres undefined)", "2.18 µM (inactive)"],
  ["Cc1[nH]c(=O)[nH]c(=O)c1C(=O)N(CCO)Cc1ccccc1", "> 100 µM (inactive)"],
  ["COc1ccc(OCc2nc3cc(C(F)(F)F)ccc3nc2-c2ccccc2)cc1", "> 100 µM (inactive)"],
  ["COc1ccc(C2C(Cl)C(=O)N2NC(=O)Cc2ccccc2)cc1 (centres undefined)", "> 100 µM (inactive)"],
  ["CCOC(=O)C(O)(NC(=O)c1ccc(F)cc1)C(F)(F)F (centres undefined)", "> 100 µM (inactive)"],
  ["NC(N)=NCCC[C@H](N)C(=O)NCC(=O)N[C@@H](CC(=O)O)c1ncc(NC(=O)C(F)(F)F)o1", "> 25 µM (inactive)"],
  ["Cc1ccc([N+](=O)[O-])cc1NC(=O)c1cccc([N+](=O)[O-])c1O", "15.6 µM (inactive)"],
  ["O=C(O)c1ccc2c(c1)CC1(C2)Cc2cc3c(cc2C1=O)CCC3 (centres undefined)", "> 100 µM (inactive)"],
  ["O=C(C[N+]1(c2ccccc2)CCOCC1)c1ccccc1", "30.4 µM (inactive)"],
  ["CN(C)/C=N/[C@@H](C(=O)O)c1ccccc1", "> 100 µM (inactive)"],
  ["O=C1/C(=C/c2ccc(O)c([N+](=O)[O-])c2)CCC/C1=C\\c1ccc(O)c([N+](=O)[O-])c1", "13.9 µM (inactive)"],
  ["C=C(CO)[C@H]1CC/C(C)=C/CC/C(C)=C/C/C=C(\\C)[C@H](O)C1", "18.3 µM (inactive)"],
  ["COc1cc(OC)c(OC)cc1/C=C/c1cnnc2ccccc12", "> 10 µM (inactive)"],
  ["COP1(=S)OCC2CCC[C@@H]2O1 (some centres undefined)", "> 100 µM (inactive)"],
  ["COc1cc(-c2c3c(cc4c2OCO4)[C@@H](Nc2ccc(-c4ccc(-c5ccc(N[C@@H]6c7cc8c(cc7C(c7cc(OC)c(O)c(OC)c7)[C@H]7C(=O)OC[C@H]67)OCO8)cc5)cc4)cc2)[C@H]2COC(=O)[C@@H]2C3)cc(OC)c1O (some centres undefined)", "3.1 µM (inactive)"],
  ["CCOc1cc(CC[N+](C)(C)C)c2c(ccc3ccc(OC)c(OC)c32)c1OC", "> 10 µM (inactive)"],
  ["CCN(CC)CCOc1ccc(N2C(=O)c3cc(OC)c(OC)cc3C2=O)cc1", "> 100 µM (inactive)"]
]}

Provenance of the data: ChEMBL document CHEMBL1201862
